Provenance of the data: the Immune Epitope Database (IEDB)

biological target: HLA-B*39:01; experiment: IEDB peptide-MHC binding, purified MHC/direct/fluorescence; filed as Kd, often an IC50 or EC50 that approximates it; bounds were set here for any values at or beyond the usual limits of such assays; conditions: source organism: West Nile virus
experimentalReadout: Kd (nM)
Report as a plain number; the unit nM is understood.

Task: Give its Kd value. Item: TRAVGKPLL
Output: 141

Task: Give its Kd value. Item: YTMDGEYRL
Output: 154

Task: Give its Kd value. Item: FVDVGVSAL
Output: 52

Next:
Task: Give its Kd value. Item: GRGPIRFVL
Output: 162

====

Kd values, listed per item
biological target: HLA-B*08:01; assay: IEDB peptide-MHC binding, purified MHC/direct/fluorescence; filed as Kd, often an IC50 or EC50 that approximates it; bounds were set here for any values at or beyond the usual limits of such assays; settings: source organism: West Nile virus
Field: value (include unit after the number)

Example sequences with recorded Kd:
Task: Give its Kd value. Item: ILRNPGYAL
Output: 483 nM

Task: Give its Kd value. Item: KIRNRIERL
Output: 254 nM

Task: Give its Kd value. Item: FTRYRKEAI
Output: 39 nM

Now take the following sequence into account.
Task: Give its Kd value. Item: MLRKKQITV
Output: 35 nM
